# assayed.target: UniProtKB Q2YDK3
# Sequence (Q2YDK3 36-553): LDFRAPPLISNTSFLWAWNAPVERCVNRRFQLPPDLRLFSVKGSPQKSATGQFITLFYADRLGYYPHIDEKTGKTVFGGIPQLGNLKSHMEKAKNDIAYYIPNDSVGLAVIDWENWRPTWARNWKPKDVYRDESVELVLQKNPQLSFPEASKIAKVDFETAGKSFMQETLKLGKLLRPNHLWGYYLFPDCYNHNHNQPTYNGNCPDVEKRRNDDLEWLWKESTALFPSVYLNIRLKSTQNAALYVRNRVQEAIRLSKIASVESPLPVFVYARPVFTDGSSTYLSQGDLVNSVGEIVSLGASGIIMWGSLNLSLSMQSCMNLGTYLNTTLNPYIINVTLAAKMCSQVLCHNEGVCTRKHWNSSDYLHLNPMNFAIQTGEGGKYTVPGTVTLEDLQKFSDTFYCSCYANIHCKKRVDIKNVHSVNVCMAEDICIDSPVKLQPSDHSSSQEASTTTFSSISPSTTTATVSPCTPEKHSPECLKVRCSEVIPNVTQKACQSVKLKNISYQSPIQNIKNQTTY
# protocol.notes: Anti-hyaluronidase activity (modified Morgan-Elson method)
# Format: biochemical
# experimental.conditions: hyaluronidase 340NF unit/ml; activating agent Compound 48/80 or CaCl2; read-out: IC50
pIC50: −log10 of the molar value.
Listed molecules paired with reported pIC50
property.label: pIC50

INSERT INTO assay_data (test_smiles, number) VALUES
  ('COc1ccc(C=C(C(=O)Nc2ccccc2C(=O)O)C(=O)Nc2ccccc2C(=O)O)cc1', 4.89),
  ('O=C(Nc1ccccc1C(=O)O)C(=Cc1ccc[nH]1)C(=O)Nc1ccccc1C(=O)O', 4.60),
  ('O=C(Nc1cccc(C(=O)O)c1)C(=Cc1ccccc1)C(=O)Nc1cccc(C(=O)O)c1', 4.19),
  ('Cc1ccc(C=C(C(=O)Nc2ccccc2C(=O)O)C(=O)Nc2ccccc2C(=O)O)cc1', 4.70);
